System: SN12C renal
ASSAY PROCEDURE: NCI-60 one-dose screen, 48 h
MEASUREMENT CONDITIONS: 10 µM unless noted
Compounds without any hit were thinned out: in the full panel of roughly 83,000, 20% have a hit. Activity calls are given as the source filed them. Rule for the calls: active = growth percent below 10; inactive = the rest.
Outcomes: active, inactive

compound="CCC1S/C(=N\\N=C(/C)c2cc3ccccc3o2)N(c2ccccc2)C1=O (stereo not drawn)" label=inactive
compound=CCn1cc(/C=C2\Oc3cc(OCC#N)ccc3C2=O)c2cc(OC)ccc21 label=inactive
compound="CCC(CC(C)C)Nc1ccc(NC(CC)CC(C)C)cc1 (stereo not drawn)" label=inactive
compound=COc1ccc(/C=C2/C(=O)Nc3cc(Cl)c(-c4csc(N)n4)cc32)cc1 label=inactive
compound=Cc1cccc(CC(=O)c2ccccc2)n1 label=inactive
compound=O=C(Nc1ccc(-n2cc(-c3ccncc3)c(-c3ccc(O)c(Cl)c3)n2)cc1)c1ccc(Cl)c(Cl)c1 label=inactive
compound=COc1cc2ncn3c(=O)c4c5c(sc4nc3c2cc1OC)CCCCC5 label=inactive
compound=Cc1cc(O[C@@H]2O[C@@H](C)[C@H](O)[C@@H](O)[C@H]2O)c2c3c(c(O[C@@H]4O[C@@H](C)[C@H](O)[C@@H](O)[C@H]4O)cc2c1)C(=O)c1c(O)cccc1C3=O label=inactive
compound="C=C(C)[C@@H]1C/C=C(\\COC(=O)[C@H](OC(C)=O)C(NC(=O)c2ccccc2)c2ccccc2)CC[C@H]2O[C@]2(C)CC/C=C(\\C)CC1 (stereo partly drawn)" label=inactive
compound=Cc1cn(-c2cc(C(=O)Nc3cccc(-n4ccc5c(NC(=O)c6ccccc6)nccc54)c3)cc(C(F)(F)F)c2)cn1 label=inactive
compound=Cc1cccc(NCS(=O)(=O)O)c1 label=inactive
compound=CN(C)c1ccc2cc(-c3nc4ccccc4s3)c(N)nc2c1 label=inactive
compound=O=C(NCCNc1nccc(-c2c(-c3cccc(O)c3)nc3sccn23)n1)c1cc(N2CCOCC2)cc(C(F)(F)F)c1 label=inactive
compound=COc1ccc(/C(=C/c2cc(OC)c(OC)c(OC)c2)[N+](=O)[O-])cc1 label=active
compound=CCCCCCCCCCCC(=O)OCCNC(=O)C[n+]1ccccc1 label=inactive
compound=O=C(Cn1c2ccccc2c2ccncc21)N/N=C\c1ccc2ccccc2c1 label=inactive
compound="COC(OC)C1(c2ccccc2)NC(=O)NC1=O (stereo not drawn)" label=inactive
compound=O=c1c2ccccc2[nH]n1Cc1ccc2c(c1)OCO2 label=inactive
compound=CC(C)CNCC(=O)Nc1ccc(Cc2ccc(NC(=O)CNCC(C)C)cc2)cc1 label=inactive
compound=CC(/C=C/C=C(\C)[C@H](O)[C@H](C)C(=O)O[C@H]1C[C@H](C)C=C2C=C[C@@]3(C)O[C@@H](O)CC(=O)[C@]3(C)[C@H]21)=C\C=C\C(=O)O label=active
compound=O=C1C(Cl)=C(Nc2ccccc2)C(=O)C(Cl)=C1Nc1ccccc1 label=inactive
compound=CC(=O)n1cc(/C=C2\N=C(c3ccc(Cl)cc3)N(c3ccc(S(=O)(=O)Nc4nccs4)cc3)C2=O)c2ccccc21 label=inactive
compound=C#C[C@@]1(O)[C@@H](CO)O[C@@H](n2cc(Br)c3c(Cl)ccnc32)[C@@H]1O label=inactive
compound=CCCCOc1nc2ccc(Cl)cc2cc1/C=C/C(=O)/C=C/c1ccc(OC)cc1 label=inactive
compound=COc1ccc(-c2c(C#N)cnc(N)c2-c2nc3cc(C)c(C)cc3[nH]2)cc1 label=inactive
compound=CN(C)c1ccc(/C=c2\s/c(=C\C(=O)C(C)(C)C)[nH]c2=O)cc1 label=inactive
compound=COc1ccc(/C=C/C(=O)/C=C(/C=C/c2ccc(OC)c(OC)c2OC)OB(F)F)c(OC)c1OC label=inactive
compound="CN1CCN(CC(O)COc2c(Br)c(Br)c(Br)c3c2OC(C)(C)C3)CC1 (stereo not drawn)" label=inactive
compound=O=C(Nc1ccc(-n2cc(-c3ccncc3)c(-c3ccc(O)c(Cl)c3)n2)cc1)Nc1cc(C(F)(F)F)cc(C(F)(F)F)c1 label=inactive
compound=CCN1CCN(Cc2ccc(NC(=O)Nc3cccc(-n4ccc5c(NC(=O)c6ccccc6)nccc54)c3)cc2C(F)(F)F)CC1 label=inactive
compound=COc1ccc(-c2coc3c(CO)c(O)ccc3c2=O)cc1 label=inactive
compound=CN(C)CCS(=O)(=O)Nc1cc(-c2ccc3ncnc(Nc4ccc(F)c(Cl)c4)c3c2)cnc1Cl label=inactive
compound=COc1cc2c(/C=C3/C(=O)Nc4ccc(O)cc43)c(Cl)n(Cc3cc(OC)c(OC)c(OC)c3)c2cc1C label=inactive
compound=O=C(Nc1cccc(-n2ccc3c(NC(=O)c4ccccc4)nccc32)c1)Nc1ccc(Cl)c(C(F)(F)F)c1 label=inactive
compound=O=[N+]([O-])c1cccc2cc(S(=O)(=O)O)ccc12 label=inactive
compound=Cc1nc(-c2ccc(Cl)cc2)ccc1NC(=O)Nc1cccc(C(F)(F)F)c1 label=inactive
compound="CCC1S/C(=N\\N=C(/C)c2ccco2)N(c2ccccc2)C1=O (stereo not drawn)" label=inactive
compound="Cc1ccc2oc(=O)cc(C3C(C#N)=C(N)Oc4c3ccc3ccccc43)c2c1 (stereo not drawn)" label=inactive

---

Tested on: HT29 colon
ASSAY PROCEDURE: NCI-60 one-dose screen, 48 h (100 = growth as untreated, 0 = no growth, -100 = all killed)
MEASUREMENT CONDITIONS: 10 µM unless noted
About 83,000 compounds went through this panel and 20% of them were active in at least one assay; those are over-represented in the sample as a whole.
Hi! Just check whether growth is below 90%. Below gives 1.0, equal or above gives 0.0.

compound="CCC1S/C(=N\\N=C(/C)c2ccco2)N(c2ccccc2)C1=O (stereo not given)" assay_system="HT29 colon" label=1.0
compound=c1nc(SC2=NCCN2)c2[nH]cnc2n1 assay_system="HT29 colon" label=1.0
compound=COc1cc(C(=O)C[n+]2ccccc2)ccc1OC(C)=O assay_system="HT29 colon" label=0.0
compound=Nc1ncnc2c1c(C(F)(F)F)cn2[C@@H]1O[C@H](CO)[C@@H](O)[C@H]1O assay_system="HT29 colon" label=1.0
compound=COC(=O)Nc1nc2ccc(Sc3ccccc3)cc2[nH]1 assay_system="HT29 colon" label=1.0
compound="Cc1cn(C2CC(N=[N+]=[N-])C(COP(=O)(O)OP(=O)(O)OP(=O)(O)O)O2)c(=O)[nH]c1=O (stereo not given)" assay_system="HT29 colon" label=0.0
compound=C[C@]12O[C@H]1[C@H](O)c1c(cc(O)c3c1C(=O)c1cccc(O)c1-3)C2=O assay_system="HT29 colon" label=0.0
compound=O=C1c2ccccc2OC=C(c2ccccc2)N1CCCCNc1ccc(F)cc1 assay_system="HT29 colon" label=1.0
compound=O=C(Nc1ccc(-n2ccc3c(NC(=O)c4ccccc4)ncnc32)cc1)c1cccc(C(F)(F)F)c1 assay_system="HT29 colon" label=1.0

---

Test system: MALME-3M melanoma
ASSAY PROCEDURE: NCI-60 one-dose screen, 48 h
MEASUREMENT CONDITIONS: 10 µM unless noted
About 83,000 compounds went through this panel and 20% of them were active in at least one assay; those are over-represented in the sample as a whole. The source made the active and inactive calls. The calls were made as follows: active = growth percent below 10; inactive = the rest.
Outcomes: active, inactive

molecule=C=C1C(=O)O[C@H]2[C@H]1CC/C(COC(=O)OC/C1=C/CC[C@@]3(C)O[C@H]3[C@H]3OC(=O)[C@@H](CN(C)C)[C@@H]3CC1)=C\CC[C@@]1(C)O[C@@H]21 label=active
molecule=O=C(Nc1ccc(-n2ccc3c(NC(=O)c4ccccc4)nccc32)cc1)c1cccc(C(F)(F)F)c1 label=inactive
molecule=CN(C)CCCOc1c(Br)cc(/C=C/C(=O)N(C)CCc2cc(Br)c(OCCCN(C)C)c(Br)c2)cc1Br label=active
molecule=O=C(Cn1c2ccccc2c2ccncc21)N/N=C/c1cc(O)c(O)c(O)c1 label=inactive
molecule=COc1cc2ncn3c(=O)c4c5c(sc4nc3c2cc1OC)CCCCC5 label=inactive
molecule=Cc1cn(-c2nc3c(c(NCc4ccccc4)n2)COCC3)c2cccc(C(N)=O)c12 label=inactive
molecule=COc1cc(/C=C/C(=O)c2ccc(Oc3ncnc4ccccc34)cc2)cc(OC)c1OC label=inactive
molecule=COc1ccc(/C=C/C(=O)/C=C(/C=C/c2ccc(OC)c(OC)c2OC)OB(F)F)c(OC)c1OC label=inactive
molecule=O=C(Nc1ccc(-n2cc(-c3ccncc3)c(-c3ccc(O)c(Cl)c3)n2)cc1)c1ccc(Cl)c(Cl)c1 label=inactive
molecule=Cc1cc(NC(=O)c2cccc(C(F)(F)F)c2)ccc1-n1ccc2c(NC(=O)c3ccccc3)nccc21 label=inactive
molecule=COc1ccc(/C=C/C(=O)c2ccc(NC(=O)CSc3nnc(-c4cc(OC)c(OC)c(OC)c4)o3)cc2)cc1 label=active
molecule=Cc1[nH]n(C(=O)c2ccncc2)c(=O)c1N=Nc1ccc(S(=O)(=O)Nc2ccncn2)cc1 label=inactive
molecule="O=C(COc1ccc(Cl)cc1Cl)N1N=C(c2ccc(Cl)cc2Cl)CC1(O)c1cc(F)c(Cl)cc1Cl (configuration not stated)" label=inactive
molecule=CN1CCN(CC(=O)N(C)c2ccc(N=C(c3ccccc3)c3c(O)[nH]c4ccc(C#N)cc34)cc2)CC1 label=inactive
molecule=CS(=O)(=O)Nc1cccc(-c2ccc3ncnc(Nc4ccc(F)c(Cl)c4)c3c2)c1 label=inactive
molecule=Cc1ccccc1C[P+](c1ccccc1)(c1ccccc1)c1ccccc1 label=active
molecule=CC(=O)CC/C=C(\C)[C@H](O)[C@H](C)C(=O)O[C@H]1C[C@H](C)C=C2C=C[C@@]3(C)O[C@@H](O)CC(=O)[C@]3(C)[C@H]21 label=active
